tested.target: Trypsin (Homo sapiens, UniProt P07477+P07478+P35030)
test.details: Inhibition of trypsin (unknown origin) at 50 uM preincubated with protein for 15 mins followed by boc-Val-Pro-Arg-AMC substrate addition and measured by continuous fluorometric analysis relative to control
Assay type: protein assay
Where a SMILES comes first, the peptide text is derived from it. [ ]: non-standard residue; d: D form. The star is where a group is joined. Phg = N[C@H](C(=O)O)c1ccccc1; Bz = O=C(c1ccccc1)*
Classify by measured inhibition: rule met if it is equal to or exceeds 10%, rule not met if it is smaller.

- N=C(N)NCCC[C@H](NC(=O)c1ccccc1)C(=O)N[C@@H](CCCCN)C(=O)N[C@H](C(N)=O)c1ccccc1 (Bz-Arg-Lys-[Phg]-NH2): rule not met
- N=C(N)NCCC[C@H](NC(=O)c1ccccc1)C(=O)N[C@@H](CCCCN)C(=O)N[C@@H](CC(N)=O)c1ccccc1: rule not met
- N=C(N)NCCC[C@H](NC(=O)c1ccccc1)C(=O)N[C@@H](CCCCN)C(=O)NC(C(N)=O)(c1ccccc1)c1ccccc1: rule met
- N=C(N)NCCCN(CC(=O)N[C@@H](CCCCN)C(=O)N[C@@H](C(N)=O)c1ccccc1)C(=O)c1ccccc1: rule not met
- CN(C(=O)c1ccccc1)[C@@H](CCCNC(=N)N)C(=O)N[C@@H](CCCCN)C(=O)N[C@@](C)(C(N)=O)c1ccccc1: rule met
- CN(C(=O)c1ccccc1)[C@@H](CCCNC(=N)N)C(=O)N[C@@H](CCCCN)C(=O)N[C@@H](C(N)=O)c1ccc(OCc2ccccc2)cc1: rule not met
- CC(NC(=O)[C@H](CCCCN)NC(=O)[C@H](CCCNC(=N)N)NC(=O)c1ccccc1)(C(N)=O)c1ccccc1 (stereo not given in full): rule not met
- CCC(NC(=O)[C@H](CCCCN)NC(=O)[C@H](CCCNC(=N)N)NC(=O)c1ccccc1)(C(N)=O)c1ccccc1 (stereo not given in full): rule not met
- C[C@](NC(=O)[C@H](CCCCN)NC(=O)[C@H](CCCNC(=N)N)NC(=O)c1ccccc1)(C(N)=O)c1ccccc1: rule met
- C[C@@](NC(=O)[C@H](CCCCN)NC(=O)[C@H](CCCNC(=N)N)NC(=O)c1ccccc1)(C(N)=O)c1ccccc1: rule met
- N=C(N)NCCC[C@H](N[C@@H](c1ccccc1)C(F)(F)F)C(=O)N[C@@H](CCCCN)C(=O)N[C@@H](C(N)=O)c1ccccc1: rule not met
- CN(C(=O)[C@H](CCCCN)NC(=O)[C@H](CCCNC(=N)N)NC(=O)c1ccccc1)[C@@H](C(N)=O)c1ccccc1: rule not met
- N=C(N)NCCC[C@H](NC(=O)c1ccccc1)C(=O)N(CCCCN)CC(=O)N[C@@H](C(N)=O)c1ccccc1: rule met
- CN(C(=O)c1ccccc1)[C@@H](CCCNC(=N)N)C(=O)N[C@@H](CCCCN)C(=O)N[C@@H](C(N)=O)c1ccccc1: rule not met
- N=C(N)NCCC[C@H](N[C@H](c1ccccc1)C(F)(F)F)C(=O)N[C@@H](CCCCN)C(=O)N[C@@H](C(N)=O)c1ccccc1: rule not met

* * *

Form field: inhibition (one value per entry).
tested.target: Genome polyprotein (dengue virus type 2) (UniProt P29990)
test.details: Inhibition of Dengue virus serotype 2 NS2B-NS3 protease at 50 uM preincubated with protein for 15 mins followed by Abz-Nle-Lys-Arg-Arg-Ser-3-(NO2)Tyr substrate addition and measured by continuous fluorometric analysis relative to control
Where a SMILES comes first, the peptide text is derived from it. [ ]: non-standard residue; d: D form. The star is where a group is joined. Phg = N[C@H](C(=O)O)c1ccccc1; Bz = O=C(c1ccccc1)*
recorded.metric: inhibition (%)

• CN(C(=O)[C@H](CCCCN)NC(=O)[C@H](CCCNC(=N)N)NC(=O)c1ccccc1)[C@@H](C(N)=O)c1ccccc1 = 33
• CN(C(=O)c1ccccc1)[C@@H](CCCNC(=N)N)C(=O)N[C@@H](CCCCN)C(=O)N[C@@](C)(C(N)=O)c1ccccc1 = 93.9
• CN(C(=O)[C@H](CCCNC(=N)N)NC(=O)c1ccccc1)[C@@H](CCCCN)C(=O)N[C@@H](C(N)=O)c1ccccc1 = 36.3
• N=C(N)NCCC[C@H](NC(=O)c1ccccc1)C(=O)N[C@@H](CCCCN)CC(=O)N[C@@H](C(N)=O)c1ccccc1 = 31.8
• CC(NC(=O)[C@H](CCCCN)NC(=O)[C@H](CCCNC(=N)N)NC(=O)c1ccccc1)(C(N)=O)c1ccccc1 (some centres undefined) = 97.8
• N=C(N)NCCC[C@H](N[C@H](c1ccccc1)C(F)(F)F)C(=O)N[C@@H](CCCCN)C(=O)N[C@@H](C(N)=O)c1ccccc1 = 43.7
• N=C(N)NCCC[C@H](NC(=O)c1ccccc1)C(=O)N[C@@H](CCCCN)CC(=O)N(CC(N)=O)c1ccccc1 = 22.7
• N=C(N)NCCC[C@H](NC(=O)c1ccccc1)C(=O)N[C@@H](CCCCN)C(=O)NC(C(N)=O)(c1ccccc1)c1ccccc1 = 20.6
• C[C@](NC(=O)[C@H](CCCCN)NC(=O)[C@H](CCCNC(=N)N)NC(=O)c1ccccc1)(C(N)=O)c1ccccc1 = 99.1
• CCC(NC(=O)[C@H](CCCCN)NC(=O)[C@H](CCCNC(=N)N)NC(=O)c1ccccc1)(C(N)=O)c1ccccc1 (some centres undefined) = 35.2
• N=C(N)NCCC[C@H](N[C@@H](c1ccccc1)C(F)(F)F)C(=O)N[C@@H](CCCCN)C(=O)N[C@@H](C(N)=O)c1ccccc1 = 32.1
• N=C(N)NCCC[C@H](NC(=O)c1ccccc1)C(=O)N[C@@H](CCCCN)C(=O)N[C@H](C(N)=O)c1ccccc1 (Bz-Arg-Lys-[Phg]-NH2) = 95
• N=C(N)NCCC[C@H](NC(=O)C(=O)c1ccccc1)C(=O)N[C@@H](CCCCN)C(=O)N[C@@H](C(N)=O)c1ccccc1 = 94
• CN(C(=O)c1ccccc1)[C@@H](CCCNC(=N)N)C(=O)N[C@@H](CCCCN)C(=O)N[C@@H](C(N)=O)c1ccc(OCc2ccccc2)cc1 = 97.8
